- Read-out: Glutamate-cysteine ligase regulatory (GCLM), GCLM (gene 2730)
- assayNotes: LTEA_HepaRG_GCLM: Life Technologies and Expression Analysis (LTEA) Assay for Glutamate-cysteine ligase regulatory (GCLM) using HepaRG (AID 2283500)
- runParameters: mRNA level, 48 h; actives raise or lower the signal
The source made the active and inactive calls. The calls were made as follows: active = hit-call score of the fitted dose curve at least 0.9, where 1 is the maximum; inactive = score below 0.9.
Allowed answers: 1 = active, -1 = inactive

Q: Answer briefly: the call reported for CCCOC(=O)c1ccc(C(=O)OCCC)nc1 in this assay.
Ans: -1

Q: # lookup: test call for N#CSCSc1nc2ccccc2s1
Ans: -1

Q: For O=C(O)C1(C(=O)Nc2ccc(Cl)cc2Cl)CC1 , which call appears in the assay record?
Ans: -1

Q: Hey, what did the test say about CCC(C)OC(=O)N1CCCCC1CCO (stereo not drawn) ?
Ans: -1

Q: GET /call?item= Oc1ccc(C(c2ccc(O)cc2)C(Cl)(Cl)Cl)cc1 returns the recorded outcome of this test.
Ans: -1

Q: // param item: CCCCCOC(=O)COc1cc(N2C(=O)C3=C(CCCC3)C2=O)c(F)cc1Cl ; yields the recorded call
Ans: -1

Q: // param item: O=C(c1ccccc1)C1CCCCC1 ; yields the recorded call
Ans: -1

Q: Could you check what this test reported for CN(C)C(=O)Nc1ccc(Cl)c(Cl)c1 ?
Ans: 1

Q: In this assay, the call recorded for N[C@@H](Cc1cc(I)c(Oc2ccc(O)c(I)c2)c(I)c1)C(=O)O was what?
Ans: -1

Q: For this compound, state the assay outcome: c1ccc2[nH]c(-c3cscn3)nc2c1
Ans: -1

Q: Field: outcome | Entry: COc1c(Cl)ccc(Cl)c1C(=O)O
Ans: -1

Q: Hey, what did the test say about COC(=O)CSc1cc(N=c2sc(=O)n3n2CCCC3)c(F)cc1Cl ?
Ans: -1

Q: Entry S=C([S-])NCCNC(=S)[S-].[Mn+2] : call = ?
Ans: 1

###

- Read-out: Cytochrome P450 (CYP2B6), CYP2B6 (gene 1555)
- assayNotes: LTEA_HepaRG_CYP2B6: Life Technologies and Expression Analysis (LTEA) Assay for Cytochrome P450 (CYP2B6) using HepaRG (AID 2283481)
- runParameters: mRNA level, 48 h; actives raise or lower the signal
Active and inactive are the calls of the source. Rule for the calls: active = hit-call score of the fitted dose curve at least 0.9, where 1 is the maximum; inactive = score below 0.9.
Choose one outcome from this list and give only that: 1 for active, -1 for inactive

Q: What outcome does the record of this test show for N[C@@H](Cc1cc(I)c(Oc2ccc(O)c(I)c2)c(I)c1)C(=O)O ?
Ans: 1

Q: Which result was noted for this compound in the test: CC(C)CCCCCCc1ccc(O)cc1
Ans: -1

Q: Recorded test outcome, item CSC(=O)c1cccc2nnsc12
Ans: -1

Q: Hi, sorry to bother you, what did the test record for CCCN(CCC)C(=O)SCC ?
Ans: 1

Q: // return assay outcome for COc1c(Cl)ccc(Cl)c1C(=O)O
Ans: -1

Q: What outcome does the record of this test show for O=C(c1ccccc1)C1CCCCC1 ?
Ans: 1

Q: Hello, I am checking results. What call was entered for S=C([S-])NCCNC(=S)[S-].[Mn+2] ?
Ans: 1

Q: I would be grateful if you could indicate the recorded call for C#CCOC(=O)[C@@H](C)Oc1ccc(Oc2ncc(Cl)cc2F)cc1 .
Ans: -1

Q: Tell me the assay call for O=C(O)C1(C(=O)Nc2ccc(Cl)cc2Cl)CC1 please.
Ans: 1

Q: Test call for this compound, please: CCOC(=O)NCCOc1ccc(Oc2ccccc2)cc1
Ans: 1

Q: Returns: the outcome recorded for C[C@]12CC[C@@H]3c4ccc(O)cc4C[C@@H](CCCCCCCCCS(=O)CCCC(F)(F)C(F)(F)F)[C@H]3[C@@H]1CC[C@@H]2O (some centres not stated) in this assay.
Ans: 1

Q: What did the test return for COC(=O)c1ccc(I)cc1S(=O)(=O)NC(=O)Nc1nc(C)nc(OC)n1 ?
Ans: -1

Value source: PubChem BioAssay (EPA / NIEHS)
